# Study target: T1, human angiotensin 2 type 1 receptor (human, UniProt P30556 1-359)
# T1 sequence (looked up): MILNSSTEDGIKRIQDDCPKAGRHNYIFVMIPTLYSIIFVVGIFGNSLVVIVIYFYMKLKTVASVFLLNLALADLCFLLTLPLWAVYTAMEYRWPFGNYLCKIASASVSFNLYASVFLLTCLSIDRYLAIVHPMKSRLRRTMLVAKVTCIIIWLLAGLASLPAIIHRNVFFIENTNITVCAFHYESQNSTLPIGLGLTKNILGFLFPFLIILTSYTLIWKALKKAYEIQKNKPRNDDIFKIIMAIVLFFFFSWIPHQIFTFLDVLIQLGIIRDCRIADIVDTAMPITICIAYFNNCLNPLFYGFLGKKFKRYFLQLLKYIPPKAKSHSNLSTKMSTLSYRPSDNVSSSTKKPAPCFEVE
# Protocol description: cell-based or functional assay
Where no end group is shown, it is not given here. [ ]: non-standard residue; d: D form. Ac6c = NC1(C(=O)O)CCCCC1; cyHex = not defined here; Ac5c = NC1(C(=O)O)CCCC1; Sar = CNCC(=O)O

Binder: [Sar]RVY[Ac5c]HPS [SEQ ID NO: 22 (Sar-Arg-Val-Tyr-cyPen-His-Pro-Ser)]
IP1 G-protein assay pEC50: > 9.2
--
Binder: [Sar]RVYPHPM [SEQ ID NO: 9 (Sar-Arg-Val-Tyr-Pro-His-Pro-Met)]
IP1 G-protein assay pEC50: < 9.2
--
Binder: [Sar]RVY[Ac5c]HPM [SEQ ID NO: 23 (Sar-Arg-Val-Tyr-cyPen-His-Pro-Met)]
IP1 G-protein assay pEC50: < 9.2
--
Binder: [Sar]RVY[cyHex]HPA (reading uncertain; also: printed as Sar-Arg-Val-Tyr-cyHex-His-Pro-Ala) [SEQ ID NO: 2 (Sar-Arg-Val-Tyr-cyHex-His-Pro-Ala)]
IP1 G-protein assay pEC50: < 9.2
--
Binder: [Sar]RVY[Ac6c]HPR [SEQ ID NO: 42 (Sar-Arg-Val-Tyr-cyHex-His-Pro-Arg)]
IP1 G-protein assay pEC50: < 9.2
--
Binder: [Sar]RVYPHPT [SEQ ID NO: 7 (Sar-Arg-Val-Tyr-Pro-His-Pro-Thr)]
IP1 G-protein assay pEC50: > 9.2
--
Binder: [Sar]RVYPHPI [SEQ ID NO: 4 (Sar-Arg-Val-Tyr-Pro-His-Pro-Ile)]
IP1 G-protein assay pEC50: < 9.2
--
Binder: [Sar]RVY[Ac5c]HPT [SEQ ID NO: 21 (Sar-Arg-Val-Tyr-cyPen-His-Pro-Thr)]
IP1 G-protein assay pEC50: > 9.2
--
Binder: [Sar]RVYPHPS [SEQ ID NO: 8 (Sar-Arg-Val-Tyr-Pro-His-Pro-Ser)]
IP1 G-protein assay pEC50: < 9.2
--
Binder: [Sar]RVY[Ac5c]HPL [SEQ ID NO: 19 (Sar-Arg-Val-Tyr-cyPen-His-Pro-Leu)]
IP1 G-protein assay pEC50: < 9.2
--
Binder: [Sar]RVY[Ac6c]HPW [SEQ ID NO: 54 (Sar-Arg-Val-Tyr-cyHex-His-Pro-Trp)]
IP1 G-protein assay pEC50: < 9.2
